From: the nanobody polyreactivity screen of Harvey et al. (2022)

# protocol-details: yeast display, Sf9 membrane polyspecificity reagent, FACS + sequencing; frameworks hold sequencing errors
metric: polyreactivity (PSR sort gate)

chain-sequence: QVQLVESGGGLVQAGGSLRLSCAASGRIFVYNTMGWYRQAPGKERELVAAITSGGNTYYADSVKGRFTISRDNAKNSVYLQMNSLKPEDTAVYYCNAYPGYDPYRRYDYWGQGTQVTVSS
metric: polyreactivity (PSR sort gate)
experimental-result: high polyreactivity

chain-sequence: QVQLVESGGGLVQAGGSLRLSCAASGRTLYLNAMGWYRQAPGKERELVASISRGGGSTYYADSVKGRFTISRDNAKYTVYLQMNSLKPEDTAVYYCAATGAGDYDYWGQGTQVTVSS
metric: polyreactivity (PSR sort gate)
experimental-result: low polyreactivity

chain-sequence: QVQLVESGGGLVQAGGSLRLSCAASGGTFGKNAMGWYRQAPGKERELVAAITWSGARTFYADSVKGRFTISRDNAKNTVYLQMNSLKPEDTAVYYCGKGGTRFTRYEYWGQGTQVTVSS
metric: polyreactivity (PSR sort gate)
experimental-result: high polyreactivity

chain-sequence: QVQLVESGGGLVQAGGSLRLSCAASGYTFYYNAMGWYIQAPGKERELVARISRSGGSTYADSVKGRFTISRDNAKNTVYLQMNSLKPEDTAVYYCNADAYGTPEFTSYAVRYDYWGQGTQVTVSS
metric: polyreactivity (PSR sort gate)
experimental-result: low polyreactivity

chain-sequence: QVQLVESGAVLVQAGGSLRLSCAASGGTFSGYTMGWYRQAPGKERELVAAITRSGSSTYYADSVKGRFTISRDNAKHTVYLQMNSLKPEDTAVSYCAATYPTSSSSYYNRYYWGQGTQVTVSS
metric: polyreactivity (PSR sort gate)
experimental-result: high polyreactivity

chain-sequence: QVQLVESGGGLVQAGGSLRLSCAGYGRIFEDNSMVSYRQPPGKERELVAAISSGDSTKYADSVKGRFTISRDNAKTTVYLQIKSLKQEDTAVYYCAAERNHGLVGSESVGRNVYWGHGTQVTVSS
metric: polyreactivity (PSR sort gate)
experimental-result: low polyreactivity

chain-sequence: QVQLVESGGGLVQAGGSLRLSCAASGRIFVTYAMGWYRQAPGKERELVAVISWSGGSTYYADSVKGRFTISRDNAKNTVYLQMNSLKPEDTAVYYCARGLRKVRFDYWGQGTQVTVSS
metric: polyreactivity (PSR sort gate)
experimental-result: low polyreactivity

chain-sequence: QVQLVESGGGLVQAGGSLRLSCAASGSTLRRYAMGWYRQAPGKERELVAAISGTGSRTYYADSVKGRFTISRDNAKNTVYLQMNSLKPEDTAVYYCNASPYRLTENDYWGQGTQVTVSS
metric: polyreactivity (PSR sort gate)
experimental-result: high polyreactivity

chain-sequence: QVQLVESGGGLVQAGGSLRLSCAASGSTFPSYAMGWYRQAPGKERELVAAITNGGSTTYADSVKGRFTISRDNAKNTVYIQMNSLKPEDTAVYYCAARYYYYYYYIRRDYWGQGTQVTVSS
metric: polyreactivity (PSR sort gate)
experimental-result: low polyreactivity

chain-sequence: QVHLVESGGGLFQAGGSLRLSCAPSGSITGYYAMGWYRQAPGKERDLVASIRNTGARTYYADSVKGRFTISRDNAKKTVYIQKNSLKAEDTAVYYCAADVKRDRVRGGDDWGQGTQVTVSS
metric: polyreactivity (PSR sort gate)
experimental-result: low polyreactivity

chain-sequence: QVQLVESGGGLVQAGGSLRLSCAASGRIFGYYVMGWYRQAPGKERELVAAIRSSADSTYYADSVKGRFTISRDNAKNTVYFQMNSLKPEDTAVYYCAAQSPAYYTKSYWGQGTQVTVSS
metric: polyreactivity (PSR sort gate)
experimental-result: low polyreactivity
